tested_target: Recombinant rat neuronal nitric oxide synthase (NOS1) (Rattus norvegicus, UniProt P29476)
Sequence (P29476 whole entry): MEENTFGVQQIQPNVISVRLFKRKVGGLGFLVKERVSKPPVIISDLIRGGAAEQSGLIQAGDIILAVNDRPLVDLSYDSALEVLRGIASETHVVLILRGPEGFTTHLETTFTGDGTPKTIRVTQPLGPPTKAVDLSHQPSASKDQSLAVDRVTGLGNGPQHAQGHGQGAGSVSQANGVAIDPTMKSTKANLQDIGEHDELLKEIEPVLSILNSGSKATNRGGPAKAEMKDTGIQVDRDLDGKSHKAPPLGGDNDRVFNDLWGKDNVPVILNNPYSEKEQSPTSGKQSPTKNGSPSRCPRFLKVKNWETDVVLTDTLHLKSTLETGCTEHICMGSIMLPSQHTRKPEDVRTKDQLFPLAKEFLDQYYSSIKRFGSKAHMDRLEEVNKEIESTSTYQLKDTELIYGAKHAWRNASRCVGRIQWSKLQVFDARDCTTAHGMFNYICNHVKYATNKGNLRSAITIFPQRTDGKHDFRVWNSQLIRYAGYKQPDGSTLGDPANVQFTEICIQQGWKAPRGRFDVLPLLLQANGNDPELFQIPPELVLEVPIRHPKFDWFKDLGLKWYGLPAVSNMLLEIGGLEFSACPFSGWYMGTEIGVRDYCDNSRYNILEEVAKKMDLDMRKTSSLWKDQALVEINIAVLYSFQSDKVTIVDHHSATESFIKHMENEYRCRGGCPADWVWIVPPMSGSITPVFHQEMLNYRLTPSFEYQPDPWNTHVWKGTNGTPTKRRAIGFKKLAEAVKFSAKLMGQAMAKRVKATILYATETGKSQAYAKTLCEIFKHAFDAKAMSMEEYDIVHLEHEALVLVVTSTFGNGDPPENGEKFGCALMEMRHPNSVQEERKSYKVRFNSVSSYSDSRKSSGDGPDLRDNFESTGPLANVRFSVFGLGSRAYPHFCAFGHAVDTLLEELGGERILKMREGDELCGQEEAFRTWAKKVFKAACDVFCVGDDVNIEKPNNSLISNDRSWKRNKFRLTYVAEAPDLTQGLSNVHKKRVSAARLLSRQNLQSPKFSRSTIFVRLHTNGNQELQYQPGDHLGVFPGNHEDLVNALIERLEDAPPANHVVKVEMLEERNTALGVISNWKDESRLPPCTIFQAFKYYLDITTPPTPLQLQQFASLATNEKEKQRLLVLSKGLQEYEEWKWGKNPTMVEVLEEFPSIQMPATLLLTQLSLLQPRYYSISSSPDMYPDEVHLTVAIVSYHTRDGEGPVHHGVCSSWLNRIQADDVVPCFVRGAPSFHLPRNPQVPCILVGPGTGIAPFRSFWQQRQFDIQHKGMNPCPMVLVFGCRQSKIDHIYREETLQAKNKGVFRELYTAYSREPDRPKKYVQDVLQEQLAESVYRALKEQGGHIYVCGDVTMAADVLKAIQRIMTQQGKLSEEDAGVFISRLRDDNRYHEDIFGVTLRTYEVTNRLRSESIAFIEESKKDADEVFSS
assay_overview: NO formation by NOS1, total nitrite and nitrate (colorimetric)
experimental_conditions: concentration that inhibited NO formation by 50%; 95% confidence level 47-82 μM; 5 hours; read-out: IC50, inhibition of NO formation
property_label: IC50 (µM)
Provide only the numeric value, understood in µM.

Measured on Recombinant rat neuronal nitric oxide synthase (NOS1) (Rattus norvegicus, UniProt P29476), `C[n+]1ccc(-c2cc[n+](C)cc2)cc1` has a documented IC50 of 62
